// data source = ChEMBL document CHEMBL4665634

# experiment.summary: Inhibition of Zn2+ induced amyloid beta (1 to 42) aggregation assessed as reduction in fibril formation incubated for 24 hrs in presence of Zn2+ by Thioflavin T based fluorometric assay
metric: pIC50
Remember the convention: pIC50 equals -log10 of concentration in molar.

Query block: Which measured pIC50 value corresponds to Oc1cc(CN(Cc2ccccn2)Cc2ccccn2)cc(C[P+](c2ccccc2)(c2ccccc2)c2ccccc2)c1.[Br-] ?
Result block: 4.56

---

# target.desc: Amyloid-beta precursor protein (Homo sapiens)
# Sequence (P05067 whole entry): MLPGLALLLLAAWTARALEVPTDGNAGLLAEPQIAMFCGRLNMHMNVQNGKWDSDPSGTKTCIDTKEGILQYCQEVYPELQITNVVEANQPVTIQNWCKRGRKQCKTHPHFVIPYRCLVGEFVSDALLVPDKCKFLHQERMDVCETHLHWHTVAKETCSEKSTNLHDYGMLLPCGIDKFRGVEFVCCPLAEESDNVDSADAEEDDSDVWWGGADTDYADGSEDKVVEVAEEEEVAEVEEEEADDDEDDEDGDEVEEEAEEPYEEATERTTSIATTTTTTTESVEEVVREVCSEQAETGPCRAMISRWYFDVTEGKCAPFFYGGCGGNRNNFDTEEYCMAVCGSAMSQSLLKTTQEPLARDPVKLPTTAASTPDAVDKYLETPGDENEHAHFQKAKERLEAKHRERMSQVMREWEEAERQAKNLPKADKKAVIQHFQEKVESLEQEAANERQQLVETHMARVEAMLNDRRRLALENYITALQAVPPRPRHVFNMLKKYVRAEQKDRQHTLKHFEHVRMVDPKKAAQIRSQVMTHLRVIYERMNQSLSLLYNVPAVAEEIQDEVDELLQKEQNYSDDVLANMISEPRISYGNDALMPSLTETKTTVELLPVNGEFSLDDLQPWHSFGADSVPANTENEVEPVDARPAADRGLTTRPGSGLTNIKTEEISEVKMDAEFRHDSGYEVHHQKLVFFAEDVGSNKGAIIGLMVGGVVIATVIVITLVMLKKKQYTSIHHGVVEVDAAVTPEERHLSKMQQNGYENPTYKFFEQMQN
# experiment.summary: Inhibition of self-induced aggregation amyloid beta (1 to 42) (unknown origin) assessed as reduction in fibril formation incubated for 24 hrs by Thioflavin T based fluorometric assay
metric: IC50 (µM)
Lab book: enter the figure in µM, no units written.

Query block: Which measured IC50 value corresponds to Oc1cc(CN(Cc2ccccn2)Cc2ccccn2)cc(C[P+](c2ccccc2)(c2ccccc2)c2ccccc2)c1.[Br-] ?
Result block: 12.5
